# pEC50 listing for each entry below
- Test system: genotype 1a-H77 subgenomic replicon cell line
- method summary: microbe, parasite or virus in culture
- Type: cell-based, HCV
- condition notes: Hepatitis C virus, read-out: EC50 1a
pEC50: −log10 of the molar value.
test readout: pEC50

{"molecule": "CC(C)(C)c1cc(N2CCC(=O)NC2=O)cc(C(=O)Nc2ccccc2S(C)(=O)=O)c1O [IA-L3-1.20]", "test readout": "pEC50", "recorded result": "< 6.00"}
{"molecule": "COc1c(C(=O)Nc2ccc(NS(C)(=O)=O)cc2C)cc(N2CCC(=O)NC2=O)cc1C(C)(C)C [IA-L3-1.83]", "test readout": "pEC50", "recorded result": "6.00 to 7.00"}
{"molecule": "COC(=O)c1cc(NS(C)(=O)=O)ccc1/C=C/c1cc(-n2ccc(=O)[nH]c2=O)cc(C(C)(C)C)c1OC [IB-L1-1.7]", "test readout": "pEC50", "recorded result": "> 8.00"}
{"molecule": "COc1c(C(=O)Nc2ccc(NS(=O)(=O)Cc3ccccc3)cc2)cc(N2CCC(=O)NC2=O)cc1C(C)(C)C [IA-L3-1.57]", "test readout": "pEC50", "recorded result": "6.00 to 7.00"}
{"molecule": "COC(=O)NN=C1CCc2cc(-c3cc(-n4ccc(=O)[nH]c4=O)cc(C(C)(C)C)c3OC)ccc21 [IB-L0-2.24]", "test readout": "pEC50", "recorded result": "7.00 to 8.00"}
{"molecule": "CC(C)(C)c1cc(/C=C/c2ccc(NS(C)(=O)=O)cc2)cc(N2CCC(=O)NC2=O)c1 [IA-L1-1.16]", "test readout": "pEC50", "recorded result": "7.00 to 8.00"}
{"molecule": "COc1cc(NS(C)(=O)=O)ccc1NC(=O)c1cc(N2CCC(=O)NC2=O)cc(C(C)(C)C)c1O [IA-L3-1.119]", "test readout": "pEC50", "recorded result": "6.00 to 7.00"}
